Recorded Dmax, one value per entry.
molecular target: BCL-XL (Homo sapiens); construct: endogenous in cells; host or cells: MOLT-4; assay: Bcl-xL ELISA degradation in MOLT-4 cells, 6 h; type: cell-based

Example entries begin here.
[[record]]
molecule = "Cc1ncsc1-c1ccc([C@H](C)NC(=O)[C@@H]2C[C@@H](O)CN2C(=O)[C@@H](c2cc(OC3CCN(CCCS(=O)(=O)NC(=O)c4nc(N5CCc6cccc(C(=O)Nc7nc8ccccc8s7)c6C5)ccc4-c4cnn(CC5CCCCC5)c4C)CC3)no2)C(C)C)cc1 [I-178]"
measurement = "50 to 75%"

[[record]]
molecule = "C#Cc1ccc(CNC(=O)[C@@H]2C[C@@H](O)CN2C(=O)[C@@H](NC(=O)CCCCCS(=O)(=O)NC(=O)c2nc(N3CCc4cccc(C(=O)Nc5nc6ccccc6s5)c4C3)ccc2-c2cnn(CC(C)(C)C)c2C)C(C)(C)C)cc1 [I-471]"
measurement = "> 75%"

[[record]]
molecule = "Cc1ncsc1-c1ccc(CNC(=O)[C@@H]2C[C@@H](O)CN2C(=O)[C@@H](NC(=O)CCCc2cccc(S(=O)(=O)NC(=O)c3nc(N4CCc5cccc(C(=O)Nc6nc7ccccc7s6)c5C4)ccc3-c3cnn(CC4CCCCC4)c3C)c2)C(C)(C)C)cc1 [I-337]"
measurement = "> 75%"


Lab note: next molecule to report on.
Prompt line: Entry Cc1ncsc1-c1ccc([C@H](C)NC(=O)[C@@H]2C[C@@H](O)CN2C(=O)[C@H](NC(=O)CCCCCCCS(=O)(=O)NC(=O)c2nc(N3CCc4cccc(C(=O)Nc5nc6ccccc6s5)c4C3)ccc2-c2cnn(CC(C)C)c2C)C(C)(C)C)cc1 [I-179] : reported Dmax = ?
Response line: > 75%

----------
molecular target: BCL-XL (Homo sapiens, UniProt Q07817); construct: endogenous in cells; host or cells: MOLT-4; assay: BCL-XL degradation assay, western blot in MOLT-4 cells, 16 h; type: cell-based; conditions: MOLT-4, read-out: Bcl-xL WB in MOLT-4 degradation 16 h: Average Dmax %
Sequence (Q07817 whole entry): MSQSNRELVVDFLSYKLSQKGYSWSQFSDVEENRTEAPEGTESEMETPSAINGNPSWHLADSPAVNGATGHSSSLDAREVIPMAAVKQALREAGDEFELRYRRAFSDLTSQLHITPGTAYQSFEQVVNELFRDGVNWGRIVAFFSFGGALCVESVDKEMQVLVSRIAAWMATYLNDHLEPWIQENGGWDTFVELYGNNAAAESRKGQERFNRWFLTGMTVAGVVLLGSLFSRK
Recorded Dmax, one value per entry.

[[record]]
molecule = "Cc1ncsc1-c1ccc([C@H](C)NC(=O)[C@@H]2C[C@@H](O)CN2C(=O)[C@@H](NC(=O)CN2CC(N3CCC(NC(=O)c4nc(N5CCc6cccc(C(=O)Nc7nc8ccccc8s7)c6C5)ccc4-c4cnn(CC5CCCCC5)c4C)CC3)C2)C(C)(C)C)cc1 [I-176]"
measurement = "> 75%"

[[record]]
molecule = "Cc1ncsc1-c1ccc([C@@H](CC(=O)N(C)CC(=O)N2CCN(CC[C@H](CSc3ccccc3)Nc3ccc(S(=O)(=O)NC(=O)c4ccc(N5CCN(CC6=C(c7ccc(Cl)cc7)CCC(C)(C)C6)CC5)cc4)cc3S(=O)(=O)C(F)(F)F)CC2)NC(=O)[C@@H]2C[C@@H](O)CN2C(=O)[C@@H](NC(=O)C2(F)CC2)C(C)(C)C)cc1 [I-137]"
measurement = "> 75%"

[[record]]
molecule = "Cc1ncsc1-c1ccc([C@H](CC(=O)N(C)CC(=O)N2CCN(CC[C@H](CSc3ccccc3)Nc3ccc(S(=O)(=O)NC(=O)c4ccc(N5CCN(CC6=C(c7ccc(Cl)cc7)CCC(C)(C)C6)CC5)cc4)cc3S(=O)(=O)C(F)(F)F)CC2)NC(=O)[C@@H]2C[C@@H](O)CN2C(=O)[C@@H](NC(=O)C2(F)CC2)C(C)(C)C)cc1 [I-136]"
measurement = "< 50%"


Prompt line: # get_value(readout= Dmax, system= BCL-XL (Homo sapiens, UniProt Q07817)) for Cc1ncsc1-c1ccc(CNC(=O)[C@@H]2C[C@@H](O)CN2C(=O)[C@@H](NC(=O)C2(F)CC2)C(C)(C)C)c(OCCCN2CCN(CC[C@H](CSc3ccccc3)Nc3ccc(S(=O)(=O)NC(=O)c4ccc(N5CCN(CC6=C(c7ccc(Cl)cc7)CCC(C)(C)C6)CC5)cc4)cc3S(=O)(=O)C(F)(F)F)CC2)c1 [I-132]
Response line: > 75%

----------
molecular target: BCL-XL (Homo sapiens, UniProt Q07817); construct: endogenous in cells; host or cells: MOLT-4; experiment: Bcl-xL ELISA degradation in MOLT-4 cells, 6 h; assay type: cell-based; conditions: read-out: Bcl-xL ELISA in MOLT-4 degradation 6 h: Mean external-Abs DC50
Recorded DC50, one value per entry.

Example entries begin here.
[[record]]
compound = "Cc1ncsc1-c1ccc([C@H](C)NC(=O)[C@@H]2C[C@@H](O)CN2C(=O)[C@H](c2cc(OC3CCN(CCNC(=O)c4nc(N5CCc6cccc(C(=O)Nc7nc8ccccc8s7)c6C5)ccc4-c4cnn(CC5CCCCC5)c4C)CC3)no2)C(C)C)cc1"
targetundertest = "BCL-XL (Homo sapiens, UniProt Q07817)"
measuredparameter = "DC50"
measurement = "100 to 500 nM"

[[record]]
compound = "Cc1ncsc1-c1ccc(CNC(=O)[C@@H]2C[C@@H](O)CN2C(=O)[C@@H](NC(=O)CCc2ccc(S(=O)(=O)NC(=O)c3nc(N4CCc5cccc(C(=O)Nc6nc7ccccc7s6)c5C4)ccc3-c3cnn(CC(C)C)c3C)cc2)C(C)(C)C)cc1"
targetundertest = "BCL-XL (Homo sapiens, UniProt Q07817)"
measuredparameter = "DC50"
measurement = "10 to 100 nM"

[[record]]
compound = "Cc1ncsc1-c1ccc([C@H](C)NC(=O)[C@@H]2C[C@@H](O)CN2C(=O)[C@@H](c2cc(N3CCN(c4ccc(S(=O)(=O)NC(=O)c5nc(N6CCc7cccc(C(=O)Nc8nc9ccccc9s8)c7C6)ccc5-c5cnn(CC6CCCCC6)c5C)cc4)CC3)no2)C(C)C)cc1"
targetundertest = "BCL-XL (Homo sapiens, UniProt Q07817)"
measuredparameter = "DC50"
measurement = "10 to 100 nM"

[[record]]
compound = "Cc1c(-c2ccc(N3CCc4cccc(C(=O)Nc5nc6ccccc6s5)c4C3)nc2C(=O)NS(=O)(=O)CCCCCc2cccc3c2n(C)c(=O)n3C2CCC(=O)NC2=O)cnn1CC1CCCCC1 (stereo not shown)"
targetundertest = "BCL-XL (Homo sapiens, UniProt Q07817)"
measuredparameter = "DC50"
measurement = "< 10 nM"


Prompt line: Entry Cc1ncsc1-c1ccc([C@H](C)NC(=O)[C@@H]2C[C@@H](O)CN2C(=O)[C@@H](NC(=O)c2ccc(NC3CCCN(S(=O)(=O)NC(=O)c4nc(N5CCc6cccc(C(=O)Nc7nc8ccccc8s7)c6C5)ccc4-c4cnn(CC5CCCCC5)c4C)C3)cc2)C(C)(C)C)cc1 (stereo partly shown) : reported DC50 = ?
Response line: 100 to 500 nM

Prompt line: Entry "C#Cc1ccc(CNC(=O)[C@@H]2C[C@@H](O)CN2C(=O)[C@H](c2cc(N3CCN(c4ccc(S(=O)(=O)NC(=O)c5nc(N6CCc7cccc(C(=O)Nc8nc9ccccc9s8)c7C6)ccc5-c5cnn(CC6CCCCC6)c5C)cc4)CC3)no2)C(C)C)c(OC)c1" : reported DC50 = ?
Response line: < 10 nM

----------
Recorded DC50, one value per entry.
target: BCL-XL (Homo sapiens, UniProt Q07817); construct: endogenous in cells; host or cells: MOLT-4; assay: BCL-XL degradation assay, western blot in MOLT-4 cells, 16 h; format: cell-based; details: western blot, MOLT-4 cells, 16 h; read-out: Bcl-xL WB in MOLT-4 degradation 16 h: Mean external-Abs DC50

[[record]]
querysmiles = "Cc1ncsc1-c1ccc([C@H](C)NC(=O)[C@@H]2C[C@@H](O)CN2C(=O)[C@@H](c2cc(OC3CCN(CCCS(=O)(=O)NC(=O)c4nc(N5CCc6cccc(C(=O)Nc7nc8ccccc8s7)c6C5)ccc4-c4cnn(CC5CCCCC5)c4C)CC3)no2)C(C)C)cc1"
measurement = "10 to 100 nM"


Prompt line: Entry "Cc1ncsc1-c1ccc([C@H](C)NC(=O)[C@@H]2C[C@@H](O)CN2C(=O)[C@@H](NC(=O)N2CC(N3CCC(S(=O)(=O)NC(=O)c4nc(N5CCc6cccc(C(=O)Nc7nc8ccccc8s7)c6C5)ccc4-c4cnn(CC5CCCCC5)c4C)CC3)C2)C(C)(C)C)cc1" : reported DC50 = ?
Response line: < 10 nM

----------
target: BCL-XL (Homo sapiens); construct: endogenous in cells; host or cells: MOLT-4; assay: Bcl-xL ELISA degradation in MOLT-4 cells, 6 h; format: cell-based
Recorded Dmax, one value per entry.

Example entries begin here.
[[record]]
compound = "C#Cc1ccc([C@H](CO)NC(=O)[C@@H]2C[C@@H](O)CN2C(=O)[C@@H](NC(=O)CCNCCS(=O)(=O)NC(=O)c2nc(N3CCc4cccc(C(=O)Nc5nc6cccnc6s5)c4C3)ccc2-c2cnn(CC(C)C)c2C)C(C)(C)C)cc1 [I-414]"
measurement = "50 to 75%"

[[record]]
compound = "Cc1ncsc1-c1ccc(CNC(=O)[C@@H]2C[C@@H](O)CN2C(=O)[C@@H](NC(=O)COc2ccc(S(=O)(=O)NC(=O)c3nc(N4CCc5cccc(C(=O)Nc6nc7ccccc7s6)c5C4)ccc3-c3cnn(CC4CCCCC4)c3C)cc2)C(C)(C)C)cc1 [I-327]"
measurement = "> 75%"

[[record]]
compound = "Cc1ncsc1-c1ccc(CNC(=O)[C@@H]2C[C@@H](O)CN2C(=O)[C@@H](NC(=O)CCc2ccc(S(=O)(=O)NC(=O)c3nc(N4CCc5cccc(C(=O)Nc6nc7ccccc7s6)c5C4)ccc3-c3cnn(CC4CCCCC4)c3C)cn2)C(C)(C)C)cc1 [I-342]"
measurement = "> 75%"


Prompt line: Entry Cc1ncsc1-c1ccc([C@H](C)NC(=O)[C@@H]2C[C@@H](O)CN2C(=O)[C@@H](NC(=O)C2CCCN(c3ccc(S(=O)(=O)NC(=O)c4nc(N5CCc6cccc(C(=O)Nc7nc8ccccc8s7)c6C5)ccc4-c4cnn(CC5CCCCC5)c4C)cc3)C2)C(C)(C)C)cc1 (stereo partly shown) [I-419] : reported Dmax = ?
Response line: > 75%
